# measured_on: HLA-A*02:01 (Homo sapiens, UniProt P04439, D140Y/D185E/D98H/E176V/E277Q/G131W/G231S/I119V/I121R/I166T/I218V/L300P/L318F/N151K/N90K/P208A/P217A/Q86G/Q94H/R138H/R169H/T345S)
# assay_overview: MHC binding assay (UV-ligand exchange, β2m ELISA)
# assay_setup: MHC class I binding score; binding to HLA-A*02:01 ranged by peptide exchange yield (UV-ligand exchange, β2m ELISA)
readout_name: Peptide exchange

- substance: "88 (ILDGIIREL; listed as Homo sapiens) [compound 88]"
  readout_name: "Peptide exchange"
  result: "+++ (>50 = +++)"
- substance: "30 (VLFPMDLAL; listed as Homo sapiens) [compound 30]"
  readout_name: "Peptide exchange"
  result: "+++ (>50 = +++)"
- substance: "120 (QLMEGKVVL; listed as Homo sapiens) [compound 120]"
  readout_name: "Peptide exchange"
  result: "++++ (>75% = ++++)"
- substance: "158 (KLIPSIIVL; listed as Homo sapiens) [compound 158]"
  readout_name: "Peptide exchange"
  result: "+++ (>50 = +++)"
- substance: "112 (VLPAVLTRL; listed as Homo sapiens) [compound 112]"
  readout_name: "Peptide exchange"
  result: "+++ (>50 = +++)"
- substance: "95 (LLDALQHEL; listed as Homo sapiens) [compound 95]"
  readout_name: "Peptide exchange"
  result: "+++ (>50 = +++)"
- substance: "81 (FLDDGNQML; listed as Homo sapiens) [compound 81]"
  readout_name: "Peptide exchange"
  result: "+++ (>50 = +++)"
- substance: "72 (TLLEVDAIVNA; listed as Homo sapiens) [compound 72]"
  readout_name: "Peptide exchange"
  result: "++++ (>75% = ++++)"
- substance: "8 (SIIPYLLEA; listed as Homo sapiens) [compound 8]"
  readout_name: "Peptide exchange"
  result: "++++ (>75% = ++++)"
- substance: "78 (ALKDLVNLI; listed as Homo sapiens) [compound 78]"
  readout_name: "Peptide exchange"
  result: "++++ (>75% = ++++)"

* * *

# measured_on: HLA-A*02:01 (Homo sapiens, UniProt P04439, D140Y/D185E/D98H/E176V/E277Q/G131W/G231S/I119V/I121R/I166T/I218V/L300P/L318F/N151K/N90K/P208A/P217A/Q86G/Q94H/R138H/R169H/T345S)
# assay_overview: MHC binding assay (UV-ligand exchange, β2m ELISA)
# assay_setup: MHC class I binding score; binding to HLA-A*02:01 ranged by peptide exchange yield (UV-ligand exchange, β2m ELISA)
readout_name: Peptide exchange

- substance: "121 (FLEDLVPYL; listed as Homo sapiens) [compound 121]"
  result: "++++ (>75% = ++++)"
- substance: "9 (SLAGLVLYV; listed as Homo sapiens) [compound 9]"
  result: "++++ (>75% = ++++)"
- substance: "90 (ILDYIHNGL; listed as Homo sapiens) [compound 90]"
  result: "+++ (>50 = +++)"
- substance: "99 (NLPSELPQL; listed as Homo sapiens) [compound 99]"
  result: "+++ (>50 = +++)"
